assay.system: Gonadotropin-releasing hormone receptor (Rattus norvegicus)
Sequence (P30969 whole entry): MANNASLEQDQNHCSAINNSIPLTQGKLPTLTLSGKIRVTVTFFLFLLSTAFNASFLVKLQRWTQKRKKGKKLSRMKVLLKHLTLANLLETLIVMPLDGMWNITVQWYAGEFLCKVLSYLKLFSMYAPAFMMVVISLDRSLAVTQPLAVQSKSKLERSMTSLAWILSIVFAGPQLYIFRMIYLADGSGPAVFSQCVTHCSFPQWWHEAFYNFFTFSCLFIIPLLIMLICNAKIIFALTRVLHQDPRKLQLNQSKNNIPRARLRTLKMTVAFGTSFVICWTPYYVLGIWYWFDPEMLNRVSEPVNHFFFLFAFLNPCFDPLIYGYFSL
assay.protocol: Affinity for rat gonadotrophin releasing hormone (GnRH) receptor using HEK293 cells transfected with rat Gonadotropin-releasing hormone receptor
Assay type: cell-based
applied.conditions: hek293
recorded.endpoint: log10(Ki) (log10 of the value in nM)
For clarity, the numbers are log10 values of Ki expressed in nM.

Examples from the recorded data:
record_smiles=CC(=O)N[C@@H]1CCC(=O)NCCC(=O)NC[C@H]2NC(=O)[C@@H](CC(=O)NC[C@H](C(N)=O)NC(=O)[C@H]3CCCN3C(=O)[C@H](CCCN=C(N)N)NC(=O)[C@@H](CC(C)C)NC(=O)[C@@H](Cc3ccc4ccccc4c3)NC2=O)NC(=O)[C@@H](Cc2c[nH]c3ccccc23)NC(=O)[C@H](Cc2ccc(Cl)cc2)NC1=O value_reported=-0.12
record_smiles=CC(=O)N[C@@H]1CCC(=O)N[C@@H](C)C(=O)NCC[C@H]2NC(=O)[C@@H](CC(=O)NC[C@H](C(N)=O)NC(=O)[C@H]3CCCN3C(=O)[C@H](CCCN=C(N)N)NC(=O)[C@@H](CC(C)C)NC(=O)[C@@H](Cc3ccc4ccccc4c3)NC2=O)NC(=O)[C@@H](Cc2c[nH]c3ccccc23)NC(=O)[C@H](Cc2ccc(Cl)cc2)NC1=O value_reported=0.20
record_smiles=CC(=O)N[C@@H]1CCC(=O)NCCCC[C@@H](C(=O)N2CCC[C@H]2C(=O)N[C@@H](C)C(N)=O)NC(=O)[C@H](CC(C)C)NC(=O)[C@H](Cc2ccc3ccccc3c2)NC(=O)[C@H](CCCNC(=N)N)NC(=O)[C@H](C)NC(=O)[C@H](Cc2cccnc2)NC(=O)[C@H](Cc2ccc(Cl)cc2)NC1=O value_reported=1.74
record_smiles=CC(=O)N[C@H]1CSSC[C@@H]2NC(=O)[C@@H](CC(=O)NC[C@H](C(N)=O)NC(=O)[C@H]3CCCN3C(=O)[C@H](CCCN=C(N)N)NC(=O)[C@@H](CC(C)C)NC(=O)[C@H](CCCN=C(N)N)NC2=O)NC(=O)[C@@H](Cc2c[nH]c3ccccc23)NC(=O)[C@H](Cc2ccc(Cl)cc2)NC1=O value_reported=1.95

Ask | Consider the molecule CC(=O)N[C@@H]1CC(=O)NCC(=O)NCC[C@H]2NC(=O)[C@@H](CC(=O)NC[C@H](C(N)=O)NC(=O)[C@H]3CCCN3C(=O)[C@H](CCCN=C(N)N)NC(=O)[C@@H](CC(C)C)NC(=O)[C@@H](Cc3cccnc3)NC2=O)NC(=O)[C@@H](Cc2cccnc2)NC(=O)[C@H](Cc2ccc(Cl)cc2)NC1=O and give its measured log10(Ki).
Reply | 0.20

Ask | Consider the molecule CC(=O)N[C@H](Cc1ccc2ccccc2c1)C(=O)N[C@H]1CSSC[C@@H]2NC(=O)[C@H](Cc3ccc(O)cc3)NC(=O)[C@H](CC(=O)NC[C@@H](C(N)=O)NC(=O)[C@@H]3CCCN3C(=O)[C@H](CCCN=C(N)N)NC(=O)[C@H](CC(C)C)NC2=O)NC(=O)[C@@H](Cc2c[nH]c3ccccc23)NC1=O and give its measured log10(Ki).
Reply | 1.11

Cited source: ChEMBL document CHEMBL1132959
